# test: Inhibition of calf brain tubulin polymerization assessed as disruption of microtubule assembly measured after 20 mins in presence of GTP by turbidometric analysis
# Format: tissue-based, Bos taurus
quantity: IC50 (µM)

INSERT INTO measurements (mol, quantity, result_value) VALUES
  ('COc1ccc(-c2[nH]c3cc(OC)ccc3c2C=O)cc1', 'IC50', 1.5);

* * *

# Tested on: MCF7
# test: Antiproliferative activity against estrogen-sensitive human MCF7 cells assessed as cell growth inhibition measured after 4 days by crystal violet staining based assay
# Assay type: functional
# condition.description: MCF7, 96 h
quantity: IC50 (nM)

INSERT INTO results (mol, target_of_assay, unit_label, result_value) VALUES
  ('COc1ccc(-c2[nH]c3cc(OC)ccc3c2C=O)cc1', 'MCF7', 'nM', 35);

Reference for the values: ChEMBL document CHEMBL4732194
